Assay System: human LXRβ (Homo sapiens)
Construct: expressed in transfected cells; host or cells: HEK293 cells (ATCC CRL-1573), transient transfection with pFA-hLXRβ/GAL4 and pUAS
Sequence (P55055 222-460 limits assumed): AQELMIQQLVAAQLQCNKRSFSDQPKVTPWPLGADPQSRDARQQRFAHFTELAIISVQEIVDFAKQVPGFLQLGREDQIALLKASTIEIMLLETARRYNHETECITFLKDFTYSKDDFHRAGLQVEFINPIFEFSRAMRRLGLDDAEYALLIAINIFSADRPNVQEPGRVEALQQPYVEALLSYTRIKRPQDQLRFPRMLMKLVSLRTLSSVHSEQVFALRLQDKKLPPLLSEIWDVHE
Protocol Summary: Assay for Transcriptional Activity of LXRβ (GAL4-hLXRβ LBD luciferase reporter, transient transfection)
Type: cell-based
Run Parameters: increase of transcriptional activity of LXRβ; HEK293 cells transfected with pFA-hLXRβ/GAL4 and pUAS; 24 hours; average of three independent tests
pEC50: −log10 of the molar value.
The label depends only on pEC50: Condition met if it is at least 6, Condition not met if it is smaller.

Example entries begin here.
Compound | Class
CN(CCCS(=O)(=O)c1cccc(-c2cccc(N3N=C(C(F)(F)C(F)(F)F)CC3c3ccc(F)cc3F)c2)c1)C(=O)OC(C)(C)C (centres unmarked) [Example 211] | Condition met
N#Cc1ccc(-c2ccc(C3CC(C(O)(C(F)(F)F)C(F)(F)F)=NN3c3ccccc3Cl)cc2)cn1 (centres unmarked) [Example 267] | Condition met
CN(C)S(=O)(=O)N1CCCN(c2ccc(C3CC(C(O)(C(F)(F)F)C(F)(F)F)=NN3c3ccc(F)cc3F)cc2)CC1 (centres unmarked) [Example 411] | Condition met
CS(=O)(=O)c1ccc(-c2cccc(C3CC(C(F)(F)C(F)(F)F)=NN3c3ccc(Cl)cc3Cl)c2)cc1 (centres unmarked) [Example 41] | Condition not met

# next compound below
Is it the case that O=S(=O)(C1CC1)N1CC=C(c2ccc(C3CC(C(O)(C(F)(F)F)C(F)(F)F)=NN3c3ccccc3Cl)cc2)CC1 (centres unmarked) [Example 304] has pEC50 reaching or exceeding 6?
Condition met
